Tested on: PRMT1 (protein arginine N-methyltransferase 1)
Assay Notes: PRMT1 binders on small-molecule microarrays, primary screen, biochemical, small-molecule microarray, 635 nm fluorescence (AID 1088);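 note: binding of Prmt1 protein to compounds spotted on small-molecule microarray slides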
Study Conditions: small-molecule microarray binding, higher = more signal
Measurement Label: composite z-score
Field format: numeric only.

Query: I am curious: what composite z-score value has been reported for CCOC(=O)[C@H](CC(C)C)NC(=O)CCC1CC(OC(=O)NCc2cccc3ccccc23)CC2(CCCC(COC(=O)NCc3ccncc3)O2)O1 (stereo not given in full) ?
Result: 1.56

Query: For the molecule shown here, CCOC(=O)[C@H](CC(C)C)NC(=O)CCC1CC(OC(=O)NCc2cccc3ccccc23)CC2(CCCC(COC(=O)NCCCN3CCCC3=O)O2)O1 (stereo not given in full) , give the reported composite z-score.
Result: 1.4

Query: composite z-score lookup needed for C#CCCCON=C1C[C@@H](O)[C@@H](O)[C@@H]2[C@@H]3C(=O)N(c4ccc(F)cc4F)C(=O)[C@@H]3CC[C@@H]12 , thanks.
Result: 0.108

Query: Name the reported composite z-score value associated with the molecule CCOC(=O)NN=C1C[C@@H](O)[C@@H](O)[C@@H]2[C@@H]3C(=O)N(Cc4ccccc4)C(=O)[C@@H]3CC[C@H]12
Result: -0.278

Query: What measured composite z-score goes with CC(CCC(=O)OC[C@H]1O[C@H](C#Cc2ccccc2)C=C[C@@H]1Oc1ccc(C)cc1)=NO[C@H](C)c1cn([C@H](CO)Cc2ccccc2)nn1 ?
Result: 1.05

Query: Any idea what its composite z-score is? The molecule is CCC=CCCC(OC(=O)c1ccc(Br)cc1)C1=CCCCC1=O (stereo not given)
Result: 1.33

Query: Tell me the measured composite z-score of O=C1OCCC=C1C(O)CCc1ccccc1 (stereo not given) , please.
Result: -1.06

Query: Give the measured composite z-score of COC(=O)[C@@H]1CC[C@H](C)[C@@H](c2ccc(C)cc2)N1C(=O)c1ccc(C=NO[C@H](C)c2cn([C@H](CO)Cc3ccccc3)nn2)cc1 .
Result: 1.04

Query: Suppose we examine the molecule O=C1[C@H]2[C@H]3[C@H](O)[C@H](O)CC(=NOCc4ccccc4)[C@@H]3CC[C@H]2C(=O)N1C[C@@H]1CCCO1 ; what composite z-score value has been reported?
Result: -0.423

Query: composite z-score for CC(C)=CCCC(C)=CCON=C1C[C@@H](O)[C@@H](O)[C@@H]2[C@@H]3C(=O)N(C4CCCCC4)C(=O)[C@@H]3CC[C@@H]12 ?
Result: 0.614

Query: Which value of composite z-score has been reported for COC(=O)CC=C[C@@H](C)[C@@H](C=NOC(C)CN1CCCc2nc(C)c(C)cc21)OC (stereo not given in full) in the records?
Result: 0.356

Query: Entry under review: O=C1C[C@@H](O)[C@@H](O)[C@@H]2[C@@H]3C(=O)N(Cc4ccccc4)C(=O)[C@@H]3CC[C@@H]12 . Reported composite z-score?
Result: 0.187

Query: Could you tell me which composite z-score is on file for CCc1cc2c(nc1CC)CCN(CCC(C)=NO[C@@H](C)c1cn([C@H](CO)Cc3ccccc3)nn1)C2 ?
Result: -0.329

Query: Tell me the measured composite z-score of CO[C@@H]1COC(=O)[C@@H](C)NC(=O)CC=C[C@@H](C)[C@H](NS(=O)(=O)c2ccc(C)cc2)COC(=O)[C@H](C)NC(=O)CC=C[C@H]1C , please.
Result: 1.36

Query: Recorded composite z-score for O=C1CCCC=C1C(O)CCOC(c1ccccc1)(c1ccccc1)c1ccccc1 (stereo not given) , please?
Result: -0.758

Recorded values, source PubChem BioAssay.
